Every entry's value here was drawn from the supplement of paper PMC10567573.

B1: SPATS1 (parent)
chain: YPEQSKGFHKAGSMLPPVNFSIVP

Variants of: B1
Experiment: protein stability index of a GFP-peptide fusion (GPS, HEK-293T) (PSI 1-6); higher = more stable;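 further: lentivirally expressed fusions sorted by FACS into six bins by GFP to DsRed ratio, PSI derived from sequencing read proportions per bin multiplied by bin number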
Conditions: c terminus: a fixed tail appended
Returns 1 if the recorded protein stability index is greater than or equal to 2, and 0 otherwise.

mutant_designation | label
G7N | 1
M14E | 0
P2R | 1
M14I | 0
G7R | 1
F20N | 1
M14K | 1
S5W | 1
V18C | 1
S13V | 0
F8V | 1
H9L | 0
A11T | 0
G12W | 1
G7Y | 1
S13C | 0
K6F | 1
I22Y | 0
Y1W | 1
V23F | 0
K6C | 1
S13G | 0
A11N | 0
H9A | 1
Q4E | 1
Y1P | 1
Q4F | 1
P16G | 0
K6S | 1
H9V | 1
K10A | 0
L15V | 0
L15F | 0
E3D | 1
S13E | 1
S13N | 1
Y1M | 1
F8S | 1
K6E | 1
K10M | 0
F20K | 1
Y1K | 1
A11K | 1
P24M | 1
V18A | 1
I22C | 0
F20G | 0
K6G | 1
S5P | 1
N19K | 0
K10R | 1
G7F | 1
E3A | 0
A11D | 1
K10L | 1
S13H | 0
I22K | 0
P24Q | 0
P2A | 0
P16T | 0
L15M | 0
M14F | 1
Y1R | 1
P16D | 0
N19F | 1
H9F | 1
S13Y | 0
M14R | 1
G7L | 1
P24A | 0
